- assay text: Toxicity liver stage against HepG2, at 10uM
- Type: cell-based
- Parameters: test concentration 10 uM, cell line HepG2-A16-CD81EGFP
- recorded conditions: human, HepG2-A16-CD81EGFP cells; read-out: INHIBITION
Assign cytotoxicity at 10 µM to each entry below.
Kindly provide the numeric value in % only, without the unit symbol.

Per the record, COC(=O)CCNC(=O)c1c[nH]cc1-c1cccc(OC)c1 has cytotoxicity at 10 µM of 4.89

Just so you know, measured cytotoxicity at 10 µM for Cc1cc(C[S+]([O-])CC(=O)NCc2ccccc2)no1 (stereo not drawn) came out at -2.13

Record N#Cc1ccc(N2CCCN(CC(=O)N3CCOCC3)CC2)cc1 . Reported cytotoxicity at 10 µM: 6.62

====

- assay text: Toxicity liver stage against HepG2, at 10uM
- Type: cell-based
- Set-up: test concentration 10 uM, cell line HepG2-A16-CD81EGFP
- recorded conditions: human, HepG2-A16-CD81EGFP cells; read-out: INHIBITION
measured quantity: cytotoxicity at 10 µM (%)
Write the number in % without appending the unit.

Data point: COc1ccc(CCN2CC(NCc3ncc[nH]3)CC2=O)cc1 (stereo not given) ; cytotoxicity at 10 µM = 0.749

Form: compound = COCCNC(=O)c1cc(OC)ccc1Br ; cytotoxicity at 10 µM = -4.2

// sample Cn1cc(CN2CCCC(n3c(=O)oc4ccccc43)C2)cn1 (stereo not given) , its cytotoxicity at 10 µM was -0.18

The compound identified as CC(C)=CCN1CCN(C(=O)c2cc(C)n[nH]2)[C@H]2CS(=O)(=O)C[C@H]21 registered its cytotoxicity at 10 µM at -6.9

The compound listed as CCn1cnnc1CNC(=O)N1CCN(c2cccc(C)c2)CC1 has a reported cytotoxicity at 10 µM of -3.42

GET /value?item= Cc1cccc(N2CCN(C(=O)CCc3c(C)noc3Cl)CC2)c1 &field=cytotoxicity at 10 µM returns -9.73

Recorded result, Cc1ccc(C(=O)N2CCN(CCc3cccs3)CC2)c(=O)[nH]1 , cytotoxicity at 10 µM: -3.94

Kindly note the recorded cytotoxicity at 10 µM for CCC(=O)N1CCCN(C(=O)C2SCCc3sccc32)CC1 (stereo not given) , which is -8.98

The recorded cytotoxicity at 10 µM for entry c1ccc2nc(N3CCOC(Cn4cncn4)C3)cnc2c1 (stereo not given) equals -11.5

Reported cytotoxicity at 10 µM ( Cc1cc(CN(C)Cc2ncc(C(C)(C)C)o2)no1 ) = 2.58

====

- assay text: Toxicity liver stage against HepG2, at 10uM
- Assay type: cell-based
- Parameters: test concentration 10 uM, cell line HepG2-A16-CD81EGFP
- recorded conditions: human, HepG2-A16-CD81EGFP cells; read-out: INHIBITION
measured quantity: cytotoxicity at 10 µM

Form field cytotoxicity at 10 µM, entry CC[C@H](C)[C@H](NC(=O)c1cccc(-n2cnnn2)c1)C(=O)OC : 7.98%

Value of measured cytotoxicity at 10 µM for the entry NC(=O)c1csc(N2C[C@@H](CN3CCC(O)CC3)[C@@H](CO)C2)n1 : 0.984%

# cytotoxicity at 10 µM of Cc1ccc(S(=O)(=O)N(C)Cc2cnccn2)cc1N(C)C = 12%

Quick note, cytotoxicity at 10 µM for CCn1cc(S(=O)(=O)NC2CCCC2)cn1 landed at -7.31%

The molecule identified as CC(=O)N[C@H](C)c1c(-c2ccc(Cl)cc2)noc1C(=O)O registered its cytotoxicity at 10 µM at 3.29%

Form field cytotoxicity at 10 µM, entry Cc1nnc(CN2CCCC2c2ccc(C(C)(C)C)cc2)o1 (stereo not drawn) : -8.48%

Summary for this molecule, Cc1cc(C)nc(C2CCN(C3CCOCC3)C2)n1 (stereo not drawn) : cytotoxicity at 10 µM is 0.469%

Item: Cc1cc(C)c2c(C(=O)N(C)C)cc(-c3cnc(N)nc3)nc2c1 | cytotoxicity at 10 µM: -8.87%

For record c1cnc(N2CC3(CCN(CC4CCOC4)CC3)c3ccccc32)nc1 (stereo not drawn) the listed cytotoxicity at 10 µM is -6.78%

cytotoxicity at 10 µM for COC(=O)c1ccc2ccn(CC3CCCO3)c(=O)c2c1 (stereo not drawn) is -15.8%

Memo: Cc1cccc(OCCC(=O)N(C)CC(C)C#N)c1C (stereo not drawn) , reported cytotoxicity at 10 µM: -0.555%

Notebook: Cc1nnsc1CN(C)C(=O)c1ccc(CSc2nnc[nH]2)o1 , cytotoxicity at 10 µM read as -3.33%

Entry O=C(Cc1ccc(O)c(F)c1)N1CCN(CC2CC2)[C@@H]2CS(=O)(=O)C[C@@H]21 , cytotoxicity at 10 µM reported as -2.06%

The reported cytotoxicity at 10 µM of the molecule CN(Cc1ccc(F)cc1)C(=O)CN1CCOC(Cn2cncn2)C1 (stereo not drawn) was -4.07%

Summary for this molecule, CCC1COCCN1C(=O)NCc1nccn1CC(C)C (stereo not drawn) : cytotoxicity at 10 µM is -3.36%

Form field cytotoxicity at 10 µM, entry Cc1nccc(-c2ccccc2)c1C(=O)N1CCC2(CC(=O)NC2=O)C1 (stereo not drawn) : -2.12%

# cytotoxicity at 10 µM of CCOCC(O)CN1CCN(C(=O)c2ccc(C)nc2)CC1 (stereo not drawn) = 0.661%

molecule CC(=O)c1ccn(CC(=O)Nc2nn(CC3CC3)c3ccccc23)n1 , cytotoxicity at 10 µM observed: 9.34%

Entry Cn1ccnc1CN1CC[C@@H](NS(C)(=O)=O)[C@@H]1Cc1cccnc1 — recorded cytotoxicity at 10 µM = 8.54%

Consider O=C(CCN1CCOCC1)N1CCC(Cc2ccc(CO)cc2)C1 (stereo not drawn) . Its measured cytotoxicity at 10 µM is -9.47%

cytotoxicity at 10 µM reported for this molecule c1ccc(C2(NCC3CNc4ccnn4C3)CCC2)cc1 (stereo not drawn) : -5.34%

The reported cytotoxicity at 10 µM of the molecule CN(C)S(=O)(=O)NCC(Cc1cccc(F)c1)N1CCNC1=O (stereo not drawn) was -3.55%

Given item CCc1nc(CN(C)CC2CCN(CCO)CC2)no1 , the value recorded as its cytotoxicity at 10 µM is -9.68%

Reported cytotoxicity at 10 µM for CNC(=O)[C@@H]1C[C@@H]2CCN(Cc3ccoc3)C[C@H]2O1 was -108%

get_value(item= CCN1C(=O)C(c2ccccc2)CC12CCN(Cc1cccnc1)CC2 (stereo not drawn) , readout=cytotoxicity at 10 µM) returns 4.65%

Short answer for CCc1cc(N2CCC(NCCSc3nnnn3C)CC2)nc(C)n1 : cytotoxicity at 10 µM was -15.2%

Briefly, cytotoxicity at 10 µM measured for COc1ccc2c(OCC(=O)NC(C)(C)C)ccnc2c1 : -2.04%

The measured cytotoxicity at 10 µM associated with CCOc1ccc(C(=O)N(C)Cc2nccn2CC(F)(F)F)cc1 reads -0.296%

In plain terms, O=C(COC1CCCC1)NCc1ccc(O)c(F)c1 has a documented cytotoxicity at 10 µM of -2.43%

According to the records, this molecule CC1CN(C(=O)CN(Cc2ccco2)Cc2cccs2)CCO1 (stereo not drawn) displays cytotoxicity at 10 µM of -7.68%

According to the records, this molecule O=C(c1ccco1)N1CCOCC2(C1)CN(c1cccnc1)C(=O)CO2 (stereo not drawn) displays cytotoxicity at 10 µM of 5.88%

Sample Cc1cc(Cl)ccc1-n1ncc(C(=O)NCC2COC(C)(C)O2)c1N (stereo not drawn) ; cytotoxicity at 10 µM observed: -2.25%

# molecule COc1ccc(C2c3c(N)nc(SC)nc3N=C3CCCC(=O)C32)cc1 (stereo not drawn) ; its cytotoxicity at 10 µM = -18.7%
